tested on: M. tuberculosis H37Rv growth inhibition; assay: M. tuberculosis H37Rv growth inhibitors, H37Rv strain (AID 1626); details: measured here: IC90 against H37Rv
Quick list: IC90 per entry.
Write the answer as a number in µM, unit excluded.

Some solved cases for reference:
• Cc1ccc(-n2cc(CN(C)Cc3nccn3C)c(-c3cccc(C)c3)n2)cc1 = 15.9
• CCCCn1c(=O)c(C(=O)Nc2nnc(C(C)C)s2)c(O)c2ccccc21 = 0.841

INPUT: Any idea what its IC90 is? The compound is COC(=O)CSc1ccc2c(N)c(C(=O)OC)sc2c1
OUTPUT: 2.82

====

Parameter IC90: see the listing below.
tested on: M. tuberculosis H37Rv growth inhibition; test: M. tuberculosis H37Rv growth inhibitors, H37Rv strain (AID 1626); conditions: measured here: IC90 against H37Rv
For clarity, give the value followed by its unit.

Examples with their reported IC90 follow.
• CN(C)CCCn1c(SCC(=O)Nc2nc(-c3cccc(Br)c3)cs2)nc2ccccc2c1=O = 5.96 µM
• COc1cccc(Nc2c3c(nc4c(-c5ccccc5)c(C)nn24)CCC3)c1 = 5.95 µM
• Cc1nc(N2CCN(Cc3ccc4c(c3)OCO4)CC2)c2cc(-c3ccccc3)sc2n1 = 6.08 µM

Let us move to another entry and its IC90.
INPUT: Which measured IC90 value corresponds to COc1ccc(N2CCN(c3nc(NC(C)(C)C)nc(N4CCCCC4)n3)CC2)cc1 ?
OUTPUT: 5.86 µM

====

system: M. tuberculosis H37Rv growth inhibition; test: M. tuberculosis H37Rv growth inhibitors, H37Rv strain (AID 1626); settings: measured here: IC90 against H37Rv
Reported Metric: IC90

// known answers, use as guide
• Clc1ccc(-c2ccc(C=Nc3ccc(N4CCOCC4)cc3)o2)c(Cl)c1 = > 100 µM
• CCOc1ccc(N=Cc2c(O)n(-c3cc(C)cc(C)c3)c(=O)[nH]c2=O)cc1 = > 100 µM

# ---- query compound ----
INPUT: Entry Cc1ccc(N2CCN(C(=O)Nc3cccc([N+](=O)[O-])c3)CC2C)cc1 (stereo not drawn) : reported IC90 = ?
OUTPUT: > 100 µM

====

test system: M. tuberculosis H37Rv growth inhibition; assay: M. tuberculosis H37Rv growth inhibitors, H37Rv strain (AID 1626); details: measured here: IC90 against H37Rv
Reported Metric: IC90

• COc1cc(OC)cc(C(=O)Nc2nc3ccccc3[nH]2)c1 = > 100 µM

INPUT: If you can, please state the reported IC90 value of CCOC(=O)c1ccc(NCc2nc3ccccc3[nH]2)cc1 .
OUTPUT: > 100 µM

INPUT: Endpoint output: IC90 of CCCc1nnc(NC(=O)c2c(O)c3cccc4c3n(c2=O)CCC4)s1 . Value?
OUTPUT: < 0.391 µM

====

system: M. tuberculosis H37Rv growth inhibition; assay: M. tuberculosis H37Rv growth inhibitors, H37Rv strain (AID 1626); settings: measured here: IC90 against H37Rv
Reported Metric: IC90

• Cc1cccc(C)c1OCC(=O)Nc1cccc(-c2nnc(-c3ccccc3)o2)c1 = > 100 µM
• O=C(Nc1ncc(Cc2cccc(Cl)c2)s1)C1=NCCN1 = > 100 µM

In the following, a different compound is considered.
INPUT: Please state recorded IC90 (tested on M. tuberculosis H37Rv growth inhibition) of O=c1oc(/C=C/c2ccccc2)nc2ccccc12
OUTPUT: > 100 µM

====

system: M. tuberculosis H37Rv growth inhibition; experiment: M. tuberculosis H37Rv growth inhibitors, H37Rv strain (AID 1626)
Reported Metric: pIC50
Formally, pIC50 is defined as -log10 of the concentration c, with c in mol/L.

Example entries begin here.
* CCOC(=O)c1ccc(N=Cc2nc3ccccc3n2C)cc1 | 4.90
* CCCCCc1cc(=O)oc2c(C(CCN3CCCC(C)C3)c3cc(OC)c(OC)c(OC)c3)c(OC)cc(OC)c12 (centres undefined) | 5.12
* COC(=O)c1c(NC(=O)c2ccccc2)sc(C(=O)c2ccccc2)c1C | 5.02
* Cc1[nH]n2c(=O)c3c(nc2c1-c1ccc(Cl)cc1)CCC3 | 4.88
* COc1ccc(N2CN=C3SCC(=O)N3C2)cc1 | 4.33

INPUT: What value of measured pIC50 is listed for Cc1cc(C)n(-c2nc(SCC(=O)O)c3c4c(sc3n2)COC(C)(C)C4)n1 ?
OUTPUT: 5.01

INPUT: Entry under review: CC(C)(C)c1nn(-c2ccccc2)c2[nH]c(=O)c(CNCc3ccc4c(c3)OCO4)cc12 . Reported pIC50?
OUTPUT: 4.95

INPUT: Query: pIC50; subject: O=C(Oc1ccc(-c2cnc3ccccc3n2)cc1)c1ccc(Cl)c([N+](=O)[O-])c1
OUTPUT: 5.28

INPUT: Looking for the measured pIC50 of COc1ccc(-c2cc(O)cc(O)c2)cc1 , can you help?
OUTPUT: 5.06

INPUT: Requested read-out: pIC50. Entry: N#Cc1ccc(/C=C/C(=O)c2ccccc2)cc1
OUTPUT: 5.23

INPUT: // returns reported pIC50 for input O=[N+]([O-])c1cc(S(=O)(=O)Nc2ccccc2)ccc1N1CCN(c2ccccc2)CC1
OUTPUT: 4.84

INPUT: Which pIC50 is listed for COC(=O)c1cc(=O)n(-c2ccccc2)c(=Nc2ccccc2)s1 ?
OUTPUT: 5.29

INPUT: Which pIC50 reading was recorded for the molecule CCCOC(=O)c1ccc(NC(=O)/C=C/c2cccs2)cc1 ?
OUTPUT: 5.39

INPUT: Value lookup for pIC50; key = COc1ccc(C2=CC(c3c(C)nn(-c4ccccc4)c3Cl)n3nnnc3N2)cc1OC (centres undefined)
OUTPUT: 5.05

====

tested on: M. tuberculosis H37Rv growth inhibition; experiment: M. tuberculosis H37Rv growth inhibitors, H37Rv strain (AID 1626)
pIC50: −log10 of the molar value.
Listing of recorded pIC50 by entry.

• O=C1c2cccc3c([N+](=O)[O-])ccc(c23)C(=O)N1Cc1cccnc1 = 5.69
• O=c1c2ccccc2nc(-c2ccc(Cl)c(Cl)c2)n1O = 4.36
• CCOC(=O)c1ccc(NC(=O)/C=C/c2cccs2)cc1 = 4.15
• COc1ccc(CNCc2cc3c(C(C)(C)C)nn(-c4ccccc4)c3[nH]c2=O)cc1 = 4.94
• Cc1ccc(OC(=O)c2sc3ncn(C)c(=O)c3c2C)cc1 = 5.83
• COc1ccc(O)c(C(=O)CC(=O)c2ccccc2C)c1 = 4.76
• COc1cc(-c2nnc(SCC(=O)OC3CCCCC3)o2)cc(OC)c1OC = > 6.71
• CCOc1ccc(N=C/C=C/c2ccccc2)c(O)c1 = 6.03
• Cc1ccc2cc(/C=C/C(=O)c3ccco3)c(Cl)nc2c1 = 4.71
• O=C1C2C(c3ccccc3)(C(=O)N1c1ccc(Cl)cc1)C2(c1ccccc1)c1ccccc1 (stereo unspecified) = 4.65

INPUT: Return reported pIC50; argument: O=C(OCc1nc2ccccc2s1)c1ccc(Br)o1
OUTPUT: 4.90

INPUT: GET /values?readout=pIC50&item= COCCCN=C1NN=C(c2cc(C)n(Cc3ccccc3Cl)c2C)CS1
OUTPUT: 4.95

INPUT: Which pIC50 is reported for this compound? O=C1Nc2ccccc2/C1=C/C(=O)c1cccs1
OUTPUT: 5.36

INPUT: Sample CCOc1ccc(N/C(C)=C\C(=O)c2ccc3c(c2)OCCO3)cc1 — what was its pIC50?
OUTPUT: 5.23

====

system: M. tuberculosis H37Rv growth inhibition; assay: M. tuberculosis H37Rv growth inhibitors, H37Rv strain (AID 1626); details: measured here: Vero cell cytotoxicity
Reported Metric: CC50

Sample records with CC50:
• O=C(CSCc1nc2ccccc2[nH]1)Nc1ccc(Oc2ccccc2)cc1 = > 40 µM
• Oc1ccccc1N=Cc1ccc[nH]1 = > 40 µM

As a next step, examine the compound that follows.
INPUT: For the record O=C(Nc1nnc(-c2ccc(Cl)s2)o1)C1CCCCC1 , what value of CC50 is listed for M. tuberculosis H37Rv growth inhibition?
OUTPUT: > 40 µM

====

tested on: M. tuberculosis H37Rv growth inhibition; assay: M. tuberculosis H37Rv growth inhibitors, H37Rv strain (AID 1626); details: measured here: IC90 against H37Rv
Reported Metric: IC90

Example results:
* CCCCCCCCCCNC(=O)C(=O)Nc1ccccn1 | > 100 µM
* OC1(C#Cc2c(-c3ccsc3)oc3ccc(N4CCOCC4)cc23)CCCCC1 | > 100 µM

Lab note: next compound to report on.
INPUT: So what's the measured IC90 for this one? O=C(Nc1cc(Oc2ccccc2)cc([N+](=O)[O-])c1)C12CC3CC(C1)CC(n1cnc(Cl)n1)(C3)C2
OUTPUT: > 100 µM
